Provenance of the data: ChEMBL document CHEMBL4765347

Form field: T/C (one value per entry).
Tested on: Nrf2 (Mus musculus)
Assay: Activation of Nrf2 in mouse Hepa1c1c7 cells assessed as increase in NQO1 activity at 0.8 uM using menadione as substrate incubated for 20 mins followed by substrate addition and measured after 30 mins by spectrophotometry relative to control
Conditions: filed as activator, time 50.0 min
Just the number, please.

NS(=O)(=O)c1ccc(-n2c(SCC(=O)Nc3ccccc3)nc3c(I)cc(I)cc3c2=O)cc1; 1
Cc1ccc(NC(=O)CSc2nc3c(I)cc(I)cc3c(=O)n2-c2ccc(S(N)(=O)=O)cc2)cc1; 0.99
COc1ccc(NC(=O)CSc2nc3c(I)cc(I)cc3c(=O)n2-c2ccc(S(N)(=O)=O)cc2)cc1; 1.02

Report measured T/C; entry is COc1cc(NC(=O)CSc2nc3c(I)cc(I)cc3c(=O)n2-c2ccc(S(N)(=O)=O)cc2)cc(OC)c1
1.01

Report measured T/C; entry is Cc1cccc(NC(=O)CSc2nc3c(I)cc(I)cc3c(=O)n2-c2ccc(S(N)(=O)=O)cc2)c1
1.01

Report measured T/C; entry is CCc1ccc(NC(=O)CSc2nc3c(I)cc(I)cc3c(=O)n2-c2ccc(S(N)(=O)=O)cc2)cc1
0.99

* * *

Tested on: Nrf2 (Mus musculus)
Test: Activation of Nrf2 in mouse Hepa1c1c7 cells assessed as increase in NQO1 activity at 1.6 uM using menadione as substrate incubated for 20 mins followed by substrate addition and measured after 30 mins by spectrophotometry relative to control
Conditions: filed as activator, time 50.0 min
Form field: T/C (one value per entry).
Just the number, please.

Cc1ccc(NC(=O)CSc2nc3c(I)cc(I)cc3c(=O)n2-c2ccc(S(N)(=O)=O)cc2)cc1; 0.99

Report measured T/C; entry is CCc1ccc(NC(=O)CSc2nc3c(I)cc(I)cc3c(=O)n2-c2ccc(S(N)(=O)=O)cc2)cc1
0.98

Report measured T/C; entry is COc1ccc(NC(=O)CSc2nc3c(I)cc(I)cc3c(=O)n2-c2ccc(S(N)(=O)=O)cc2)cc1
1

Report measured T/C; entry is COc1cc(NC(=O)CSc2nc3c(I)cc(I)cc3c(=O)n2-c2ccc(S(N)(=O)=O)cc2)cc(OC)c1
1.02
